The reported measurements were obtained from the supplement of paper PMC9112550.

Tested on: Escherichia coli TOP10;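 further: peptides expressed intracellularly from a pBAD plasmid library in pooled LB shake-flask culture, induced with 0.3% L-arabinose, DNA abundance read by NGS, three biological replicates, DESeq2 with apeglm shrinkage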
protocol.summary: shrunken log2 fold change of peptide-encoding DNA abundance (4.5 h post-induction vs induction); higher = less antimicrobial activity (less host growth inhibition)
experimental.conditions: time post-induction: 4.5 h; library: site-saturation at positions 5, 18, 19, 20
quantity.name: shrunken log2 fold change
Just the number.

The examples below pair each entry with its known result.
RRIRIRPPRLPRPRPRPTMWPRP : -0.0599
RRIRPRPPRLPRPRPRPTGKPRP : 0.102
RRIRNRPPRLPRPRPRPWWIPRP : -0.00145

Req: Look at this sequence and give its reported shrunken log2 fold change. RRIRFRPPRLPRPRPRPLKQPRP
Resp: 0.053

Req: Look at this sequence and give its reported shrunken log2 fold change. RRIRGRPPRLPRPRPRPCWQPRP
Resp: 0.153

Req: Look at this sequence and give its reported shrunken log2 fold change. RRIRWRPPRLPRPRPRPWRDPRP
Resp: 0.433

Req: Look at this sequence and give its reported shrunken log2 fold change. RRIRVRPPRLPRPRPRPYFEPRP
Resp: -0.26

Req: Look at this sequence and give its reported shrunken log2 fold change. RRIRYRPPRLPRPRPRPPCRPRP
Resp: -0.211
